tested on: MDA-MB-231; experiment: Cytotoxicity against human MDA-MB-231 cells assessed as reduction in cell viability after 72 hrs by MTT assay; assay type: functional, cell-based; settings: MDA-MB-231, 72 h
Outcome Measure: IC50

| Molecule | Measurement Target | Experimental Value |
| --- | --- | --- |
| O=C(CCc1ccc(O)cc1)c1ccc(O)cc1O [DAVIDIGENIN] | MDA-MB-231 | > 10 µM |
| COc1ccc(/C=C/C(=O)c2cc(OC)c(OC)c(OC)c2)cc1 | MDA-MB-231 | 6.5 µM |
| O=C(/C=C/c1ccccc1)c1ccc(O)cc1O [2',4'-DIHYDROXYCHALCONE] | MDA-MB-231 | > 10 µM |
| O=C(/C=C/c1ccc(O)cc1)c1cc(Cc2c(O)ccc(C(=O)/C=C/c3ccc(O)cc3)c2O)c(O)cc1O | MDA-MB-231 | > 10 µM |
| O=C(/C=C/c1ccc(O)cc1)c1c(O)cc(O)cc1O [4,2',4',6'-TETRAHYDROXYCHALCONE] | MDA-MB-231 | > 10 µM |
| O=C(/C=C/c1ccc(O)cc1)c1ccc(O)cc1 [4,4'-DIHYDROXYCHALCONE] | MDA-MB-231 | > 10 µM |
| O=C(/C=C/c1ccc(O)cc1)c1ccc(O)cc1O [ISOLIQUIRITIGENIN] | MDA-MB-231 | > 10 µM |
| CC(=O)O[C@H]1C(=O)[C@@]2(C)[C@H]([C@H](OC(=O)c3ccccc3)[C@]3(O)C[C@H](OC(=O)[C@H](O)[C@@H](NC(=O)c4ccccc4)c4ccccc4)C(C)=C1C3(C)C)[C@]1(OC(C)=O)CO[C@@H]1C[C@@H]2O [PACLITAXEL] | MDA-MB-231 | 0.0039 µM |
| O=C(CCc1ccc(O)cc1)c1c(O)cc(O)cc1O [PHLORETIN] | MDA-MB-231 | > 10 µM |
| COc1cc(/C=C/C(=O)c2ccc(OC)c(OC)c2OC)cc(OC)c1OC | MDA-MB-231 | 7.4 µM |
| COc1ccc(/C=C/C(=O)c2ccc(OC)cc2OC)cc1 [METOCHALCONE] | MDA-MB-231 | 7.9 µM |
| COc1ccc(C(=O)/C=C/c2ccc(O)c(OC)c2)c(OC)c1 | MDA-MB-231 | > 10 µM |
| COc1ccc(C(=O)CCc2ccccc2)c(O)c1 | MDA-MB-231 | > 10 µM |
| COc1cc(C(=O)/C=C/c2ccc(Cl)c(Cl)c2)cc(OC)c1OC | MDA-MB-231 | > 10 µM |
| O=C(/C=C/c1ccc(O)cc1)c1ccc(O)c(O)c1O | MDA-MB-231 | > 10 µM |
| O=C(/C=C/c1ccc(O)cc1)c1cc(O)ccc1O | MDA-MB-231 | > 10 µM |
